- assay target: T1, recombinant biotinylated human CD137 protein (Fc-fusion protein, R&D Systems 838-4B) (human, UniProt Q07011 24-186, biotinylated (site not stated))
- T1 construct: Bought Fc fusion; The ELISA used the same antigen as the panning; also called CD137-Fc; biotinylated CD137; not shown: Fc part of the bought fusion protein
- test details: ELISA, bacterial lysate on plate-bound antigen, luminescence
observation type: ELISA CD137-Fc (RLU)
Numbers only here, please. The scale is RLU.

Query ISOP120FR5P1E10 (designed binder, not shown: small tags and cut ends, FN3 domain (Centyrin); tested as E. coli lysate) LPAPKNLVVSRVTEDSARLSWTAPDAAFDSFLIHYTEQPSKGEAIVLTVPGSERSYDLTGLKPGTEYQVPIGVKGGTQSCPLSAIFTT yields ELISA CD137-Fc (RLU) of 953000

Lab book: ELISA CD137-Fc (RLU) of ISOP120HR5P1D7 (designed binder, not shown: small tags and cut ends, FN3 domain (Centyrin); tested as E. coli lysate) LPAPKNLVVSRVTEDSARLSWTAPDAAFDSFDIYYLESWTRGEAIVLTVPGSERSYDLTGLKPGTEYLVTIYGVKGGSYSRPLSAIFTT noted as 1.1e+06

Noted for ISOP120AR5P1G8 (designed binder, not shown: small tags and cut ends, FN3 domain (Centyrin); tested as E. coli lysate) LPAPKNLVVSRVTEDSARLSWHATFGDPFDSFLIQYQESEKVGEAIVLTVPGSERSYDLTGLKPGTEYTVSIYGVGRHYTVYDSNPLSAIFTT : its ELISA CD137-Fc (RLU) reads 541000

binder ISOP120GR5P1E7 (designed binder, not shown: small tags and cut ends, FN3 domain (Centyrin); tested as E. coli lysate) LPAPKNLVVSRVTEDSARLSWTAPDAAFDSFEIDYWEVESEGEAIILFVPGSERSYDLTGLKPGTEYHVHIVGVKGGTPSYPLWADFTT , ELISA CD137-Fc (RLU) observed: 1.13e+06

Lab note: ISOP120BR5P1G4 (designed binder, not shown: small tags and cut ends, FN3 domain (Centyrin); tested as E. coli lysate) LPAPKNLVVSRVTEDSARLSWAGHYRKIRNFDSFLIQYQESEKVGEAIVLTVPGSERSYDLTGLKPGTEYTVSIYGVKFPYYYATADSNPLSAIFTT gave ELISA CD137-Fc (RLU) of 580000

# binder ISOP120HR5P1E2 (designed binder, not shown: small tags and cut ends, FN3 domain (Centyrin); tested as E. coli lysate) LPAPKNLVVSHVTEDSARLSWTAPDAAFDSFEIYYLEGGRGEAIVLTVPGSERSYDLTVLKPGTEYLGTIYGVKCGWASNPLSAIFTT ; its ELISA CD137-Fc (RLU) = 1.32e+06

Entry ISOP120BR5P1B7 (designed binder, not shown: small tags and cut ends, FN3 domain (Centyrin); tested as E. coli lysate) LPAPKNLVVSRVTEDSARLSWGAKTRQFDSFLIQYQESEKVGEAIVLTVPGSERSYDLTGLKPGTEYTVSIYGVWWVENHFPVSNPLSAIFTT , ELISA CD137-Fc (RLU) reported as 565000

The measured ELISA CD137-Fc (RLU) associated with ISOP120AR5P1C5 (designed binder, not shown: small tags and cut ends, FN3 domain (Centyrin); tested as E. coli lysate) LPAPKNLVVSRVTEDSARLSWTLPNIHFDSFLIQYQESEKVGEAIVLTVPGSERSYDLTGLKPGTEYTVSIYGVGRHYTVYDSNPLSAIFTT reads 425000

Record ISOP120AR5P1G7 (designed binder, not shown: small tags and cut ends, FN3 domain (Centyrin); tested as E. coli lysate) LPAPKNLVVSRVTEDSARLSWSQHYLSPIPFDSFLIQYQESEKVGEAIVLTVPGSERSYDLTGLKPGTEYTVSIYGVGRHYTVYDSNPLSAIFTT . Reported ELISA CD137-Fc (RLU): 568000
